Cited source: the supplement of paper PMC8967900

system: COG-LL-355h; assay: selective drug sensitivity score (sDSS, relative to normal bone marrow) (sDSS (score)); higher = more potent and effective on the cell line relative to normal bone marrow cells; conditions: 72 h;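 also: ALL cell lines in 384-well plates, five doses spanning 10,000-fold, each plate scaled between vehicle and 100 µmol/L benzalkonium chloride controls, sDSS an adapted area-under-curve metric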
Classify as follows. Reported selective drug sensitivity score greater than or equal to 4: label 1. Reported selective drug sensitivity score below: label 0.

1) NC(=O)/C(=C/n1cnc(-c2cc(C(F)(F)F)cc(C(F)(F)F)c2)n1)c1cncnc1 [Eltanexor] (top concentration 10000 nM)    label 1
2) Nc1nc(Nc2ccc3c(c2)CC[C@@H](N2CCCC2)CC3)nn1-c1cc2c(nn1)-c1ccccc1CCC2 [BGB324] (top concentration 10000 nM)    label 0
3) Clc1ccccc1C(c1ccccc1)(c1ccccc1)n1cccn1 [TRAM-34] (top concentration 1000 nM)    label 0
4) COc1cc(CCc2cc(NC(=O)c3ccc(N4CC(C)NC(C)C4)cc3)n[nH]2)cc(OC)c1 (stereo unspecified) [AZD4547] (top concentration 1000 nM)    label 0
5) O=C(O)c1ccc(CN2CCC(CN[C@@H]3C[C@H]3c3ccccc3)CC2)cc1 (top concentration 100000 nM)    label 0

Prompt line: Please check the record CC(C)Oc1ccc(-c2nn([C@@H](C)c3oc4ccc(F)cc4c(=O)c3-c3cccc(F)c3)c3ncnc(N)c23)cc1F [TGR-1202] (top concentration 2500 nM) and state if its selective drug sensitivity score is at or above 4.
Response line: label 1

* * *

test system: COG-LL-317; assay: selective drug sensitivity score (sDSS, relative to normal bone marrow) (sDSS (score)); higher = more potent and effective on the cell line relative to normal bone marrow cells; conditions: 72 h
Consider the following molecules and their measured selective drug sensitivity score readings.

1. CN1CC[C@@H](NC(=O)Nc2ccc(C#N)cc2)C[C@@H]1c1nc2ccccc2[nH]1 [Glasdegib] (top concentration 1000 nM)    1.5
2. COc1cc2c(NC3CCN(C(C)C)CC3)nc(C3CCCCC3)nc2cc1OCCCN1CCCC1 [UNC0638] (top concentration 10000 nM)    0.06
3. O=C(NOCCO)c1ccc2cncn2c1Nc1ccc(I)cc1F [GDC-0623] (top concentration 2500 nM)    -0.8
4. Cn1cc(CNCC2CCN(c3ncc(C(=O)NO)cn3)CC2)c2ccccc21 [Quisinostat] (top concentration 1000 nM)    7.18
5. COc1cc(C)c(/C=C/C(C)=C/C=C/C(C)=C/C(=O)O)c(C)c1C [Acitretin] (top concentration 10000 nM)    -0.5
6. O=S(=O)(c1cccc2c(O)nccc12)N1CCCNCC1 [Hydroxyfasudil] (top concentration 19000 nM)    -0.22
7. C#Cc1cccc(Nc2ncnc3cc(OCCOC)c(OCCOC)cc23)c1 [Erlotinib] (top concentration 10000 nM)    0.16
8. O=C1CCc2c(Oc3ccc4c(c3)[C@@H]3[C@H](O4)[C@H]3c3nc4cc(C(F)(F)F)ccc4[nH]3)ccnc2N1 [Lifirafenib (BGB-283)] (top concentration 10000 nM)    2.28
9. CC(=O)c1cc2c(o1)C(=O)c1ccccc1C2=O [Napabucasin] (top concentration 20000 nM)    -0.18
10. CCNC(=O)C[C@@H]1N=C(c2ccc(Cl)cc2)c2cc(OC)ccc2-n2c(C)nnc21 [Molibresib] (top concentration 10000 nM)    3.2

Prompt line: API: value(readout= selective drug sensitivity score, system= COG-LL-317, query= O=c1ncn2nc(Sc3ccc(F)cc3F)ccc2c1-c1c(Cl)cccc1Cl [Neflamapimod] (top concentration 10000 nM) )
Response line: 1.7

Prompt line: API: value(readout= selective drug sensitivity score, system= COG-LL-317, query= CO[C@H]1C[C@@H]2CC[C@@H](C)[C@@](O)(O2)C(=O)C(=O)N2CCCC[C@H]2C(=O)O[C@H]([C@H](C)C[C@@H]2CC[C@@H](OCCO)[C@H](OC)C2)CC(=O)[C@H](C)/C=C(\C)[C@@H](O)[C@@H](OC)C(=O)[C@H](C)C[C@H](C)/C=C/C=C/C=C/1C [Everolimus] (top concentration 100 nM) )
Response line: 2.4
